system: MUC5AC; test: IL-13-induced MUC5AC production in primary-culture human tracheal epithelial cells (qPCR, cell-based ELISA); conditions: IL-13-induced, primary-culture human airway epithelial cells; read-out: IC50 for blockade of mucus production
pIC50: −log10 of the molar value.
Parameter: pIC50

### Prompt I'm curious: which pIC50 was measured for `Cc1ccc(-n2nc(C(C)(C)C)cc2NC(=O)Nc2ccc(Oc3ccncc3)cc2)cc1` tested on MUC5AC?
### Response > 8.00

---

molecular target: MAPK13 (Homo sapiens (Human)); assay: MAPK13/small molecule binding assay (bio-layer interferometry, Octet); conditions: complex half-life determined using BLI
Sequence (O15264 whole entry): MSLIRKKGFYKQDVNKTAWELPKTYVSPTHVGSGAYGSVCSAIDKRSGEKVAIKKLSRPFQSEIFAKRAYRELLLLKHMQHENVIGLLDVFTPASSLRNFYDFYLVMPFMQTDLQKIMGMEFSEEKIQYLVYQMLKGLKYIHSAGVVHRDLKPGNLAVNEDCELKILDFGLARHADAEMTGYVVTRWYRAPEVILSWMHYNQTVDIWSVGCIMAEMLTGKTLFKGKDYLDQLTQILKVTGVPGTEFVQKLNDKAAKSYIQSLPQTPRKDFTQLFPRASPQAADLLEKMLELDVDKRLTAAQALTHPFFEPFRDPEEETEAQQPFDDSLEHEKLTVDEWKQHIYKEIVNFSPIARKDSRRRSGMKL
Parameter: t1/2 (min)
Please respond with the number in min and leave the unit unwritten.

Structure notation | Assay result
Cc1ccc(-n2nc(C(C)(C)C)cc2NC(=O)Nc2ccc3c(c2)CN(C(=O)C2CCOCC2)C3)cc1 | 3.4

### Prompt Can you look up the measured t1/2 of `Cc1cn(-c2cccc(C(=O)Nc3ccc(Oc4ccncc4)cc3)c2)cn1` for me?
### Response 0.0467

### Prompt Can you look up the measured t1/2 of `Cn1nc(C(C)(C)C)cc1NC(=O)Nc1ccc(Oc2ccncc2)cc1` for me?
### Response 1.85

### Prompt Can you look up the measured t1/2 of `Cc1ccc(-n2nc(C(C)(C)C)cc2NC(=O)Nc2ncc(CCN3CCOCC3)s2)cc1` for me?
### Response 20

### Prompt Can you look up the measured t1/2 of `O=C(Nc1ccc(Oc2ccncc2)cc1)c1ccnc(N2CCOCC2)c1` for me?
### Response 0.02
